# measurementDescription: Inhibition of Trypanosoma brucei PRMT7 expressed in Escherichia coli preincubated for 10 mins in presence of AdoMet followed by susbtrate addition by fluorescence based SAHH enzyme coupled assay
pIC50: −log10 of the molar value.
assayReadout: pIC50

>>> print(df.to_string())
                                givensmiles  reported
0  NC(=O)c1cccc(C#CCN(CC[C@H](N)C(=O)O)C[C@H]2O[C@@H](n3cnc4c(N)ncnc43)[C@H](O)[C@@H]2O)c1    < 4.48

====

# studySystem: Histone-lysine N-methyltransferase SETD7 (Homo sapiens)
# Sequence (Q8WTS6 whole entry, the tested form may be a part): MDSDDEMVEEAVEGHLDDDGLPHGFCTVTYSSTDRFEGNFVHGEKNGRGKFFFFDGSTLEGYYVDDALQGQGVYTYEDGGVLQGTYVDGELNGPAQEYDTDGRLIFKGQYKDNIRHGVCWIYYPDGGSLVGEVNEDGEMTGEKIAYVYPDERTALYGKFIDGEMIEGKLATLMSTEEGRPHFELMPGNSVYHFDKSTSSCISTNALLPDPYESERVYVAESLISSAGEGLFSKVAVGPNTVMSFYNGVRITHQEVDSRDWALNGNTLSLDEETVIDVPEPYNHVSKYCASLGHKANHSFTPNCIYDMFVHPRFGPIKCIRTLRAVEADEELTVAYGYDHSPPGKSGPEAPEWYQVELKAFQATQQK
# measurementDescription: Inhibition of recombinant human His-tagged SETD7 (1 to 366 residues) expressed in Escherichia coli using H3-21 peptide as susbtrate preincubated for 10 mins in presence of AdoMet followed by substrate addition by fluorescence based SAHH enzyme coupled assay
assayReadout: IC50

>>> df
                                givensmiles  assayreadout  reported
0  NC(=O)c1cccc(C#CCN(CC[C@H](N)C(=O)O)C[C@H]2O[C@@H](n3cnc4c(N)ncnc43)[C@H](O)[C@@H]2O)c1          IC50  > 100 µM

====

# studySystem: UniProt:Q63009
# Sequence (Q63009 whole entry): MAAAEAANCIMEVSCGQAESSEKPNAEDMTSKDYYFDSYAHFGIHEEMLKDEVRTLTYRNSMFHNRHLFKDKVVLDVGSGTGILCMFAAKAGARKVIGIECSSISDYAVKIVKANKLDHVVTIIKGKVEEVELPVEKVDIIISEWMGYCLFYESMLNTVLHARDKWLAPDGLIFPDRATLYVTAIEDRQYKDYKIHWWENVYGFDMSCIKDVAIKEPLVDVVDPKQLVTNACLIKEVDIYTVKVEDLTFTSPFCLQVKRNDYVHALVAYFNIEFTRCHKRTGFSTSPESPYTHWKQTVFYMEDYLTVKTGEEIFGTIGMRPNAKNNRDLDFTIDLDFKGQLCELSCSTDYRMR
# measurementDescription: Inhibition of recombinant rat His-tagged PRMT1 expressed in Escherichia coli BL21(DE3) cells using H4-21 peptide as susbtrate preincubated for 10 mins in presence of AdoMet followed by substrate addition by fluorescence based SAHH enzyme coupled assay
assayReadout: IC50

>>> print(df.to_string())
                                givensmiles     studysystem  reported
0  NC(=O)c1cccc(C#CCN(CC[C@H](N)C(=O)O)C[C@H]2O[C@@H](n3cnc4c(N)ncnc43)[C@H](O)[C@@H]2O)c1  UniProt:Q63009  > 100 µM

====

# studySystem: Histone-lysine N-methyltransferase EHMT2 (Homo sapiens, UniProt Q96KQ7)
# Sequence (Q96KQ7 whole entry, the tested form may be a part): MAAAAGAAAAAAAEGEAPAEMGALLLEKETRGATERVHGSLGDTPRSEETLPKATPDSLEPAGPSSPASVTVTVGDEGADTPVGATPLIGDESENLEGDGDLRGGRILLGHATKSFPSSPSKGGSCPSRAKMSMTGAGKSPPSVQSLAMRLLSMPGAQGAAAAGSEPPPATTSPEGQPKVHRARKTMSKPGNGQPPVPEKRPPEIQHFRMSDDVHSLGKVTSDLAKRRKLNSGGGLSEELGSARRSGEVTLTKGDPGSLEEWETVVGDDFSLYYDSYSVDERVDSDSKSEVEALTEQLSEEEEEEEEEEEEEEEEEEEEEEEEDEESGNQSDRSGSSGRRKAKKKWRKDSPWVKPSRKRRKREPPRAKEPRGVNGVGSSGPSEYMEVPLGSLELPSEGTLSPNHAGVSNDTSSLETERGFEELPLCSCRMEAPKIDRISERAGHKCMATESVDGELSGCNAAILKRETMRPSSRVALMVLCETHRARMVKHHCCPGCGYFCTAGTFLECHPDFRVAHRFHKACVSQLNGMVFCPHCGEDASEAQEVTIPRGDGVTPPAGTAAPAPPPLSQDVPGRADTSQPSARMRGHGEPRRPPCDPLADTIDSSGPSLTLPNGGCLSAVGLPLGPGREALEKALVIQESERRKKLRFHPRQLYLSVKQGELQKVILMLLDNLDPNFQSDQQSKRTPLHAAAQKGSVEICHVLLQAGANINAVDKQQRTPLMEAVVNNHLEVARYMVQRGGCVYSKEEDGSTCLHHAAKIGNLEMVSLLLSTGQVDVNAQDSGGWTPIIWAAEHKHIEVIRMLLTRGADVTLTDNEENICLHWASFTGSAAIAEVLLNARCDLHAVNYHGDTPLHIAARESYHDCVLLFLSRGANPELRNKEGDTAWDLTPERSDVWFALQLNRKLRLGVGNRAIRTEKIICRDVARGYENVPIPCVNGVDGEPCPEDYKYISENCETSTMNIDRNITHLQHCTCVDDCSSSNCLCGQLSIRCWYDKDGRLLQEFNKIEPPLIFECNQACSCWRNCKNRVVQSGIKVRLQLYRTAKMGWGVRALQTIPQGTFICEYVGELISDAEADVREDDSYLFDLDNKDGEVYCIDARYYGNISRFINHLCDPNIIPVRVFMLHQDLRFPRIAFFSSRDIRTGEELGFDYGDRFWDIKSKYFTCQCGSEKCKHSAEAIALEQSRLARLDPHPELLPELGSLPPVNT
# measurementDescription: Inhibition of recombinant human G9a (913 to 1193 residues) expressed in Escherichia coli BL21-CodonPlus(DE3)-RIL using H3-21 peptide preincubated for 10 mins in presence of AdoMet followed by substrate addition by fluorescence based SAHH enzyme coupled assay
assayReadout: IC50

                                givensmiles  assayreadout  reported
0  NC(=O)c1cccc(C#CCN(CC[C@H](N)C(=O)O)C[C@H]2O[C@@H](n3cnc4c(N)ncnc43)[C@H](O)[C@@H]2O)c1          IC50  > 100 µM

====

# studySystem: N-terminal Xaa-Pro-Lys N-methyltransferase 1 (Homo sapiens)
# Sequence (Q9BV86 whole entry): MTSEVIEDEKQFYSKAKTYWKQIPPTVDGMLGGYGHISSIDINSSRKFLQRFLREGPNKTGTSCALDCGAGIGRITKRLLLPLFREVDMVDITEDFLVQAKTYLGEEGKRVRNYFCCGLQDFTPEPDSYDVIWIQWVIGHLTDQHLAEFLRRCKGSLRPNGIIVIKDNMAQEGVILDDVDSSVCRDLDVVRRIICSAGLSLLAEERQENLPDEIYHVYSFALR
# measurementDescription: Inhibition of NTMT1 (unknown origin) using GPKRIA peptide as substrate preincubated for 10 mins in presence of AdoMet followed by susbtrate addition by fluorescence based SAHH enzyme coupled assay
pIC50: −log10 of the molar value.
assayReadout: pIC50

>>> df
                                givensmiles  reported
0  NC(=O)c1cccc(C#CCN(CC[C@H](N)C(=O)O)C[C@H]2O[C@@H](n3cnc4c(N)ncnc43)[C@H](O)[C@@H]2O)c1    < 4.48

====

Recorded log10(Ki) values (Nicotinamide N-methyltransferase (Homo sapiens)) are given below.
assayReadout: log10(Ki) (log10 of the value in nM)

In [3]: df
Out[3]:
                                givensmiles  reported
0  Cc1ccc(C(N)=O)cc1CCCN(CC[C@H](N)C(=O)O)C[C@H]1O[C@@H](n2cnc3c(N)ncnc32)[C@H](O)[C@@H]1O      2.18
1  NC(=O)c1cccc(CCN(CC[C@H](N)C(=O)O)C[C@H]2O[C@@H](n3cnc4c(N)ncnc43)[C@H](O)[C@@H]2O)c1      4.00
2  NC(=O)c1cccc(CCCCN(CC[C@H](N)C(=O)O)C[C@H]2O[C@@H](n3cnc4c(N)ncnc43)[C@H](O)[C@@H]2O)c1      2.92
3  NC(=O)c1cccc(C#CCNC[C@H]2O[C@@H](n3cnc4c(N)ncnc43)[C@H](O)[C@@H]2O)c1      3.48
4  Cc1ccc(CCCN(CC[C@H](N)C(=O)O)C[C@H]2O[C@@H](n3cnc4c(N)ncnc43)[C@H](O)[C@@H]2O)cc1C(N)=O      1.71
5  NC(=O)c1cccc(CCCCN(CCC[C@H](N)C(=O)O)C[C@H]2O[C@@H](n3cnc4c(N)ncnc43)[C@H](O)[C@@H]2O)c1      2.73
6  COC(=O)c1cccc(CCCN(CC[C@H](N)C(=O)O)C[C@H]2O[C@@H](n3cnc4c(N)ncnc43)[C@H](O)[C@@H]2O)c1      4.45

Attribution: ChEMBL document CHEMBL4321848
